Below, each of the molecules is paired with its reported pIC50 value.
# System: human neutrophils
# Protocol Details: Elastase release in fMLF/cytochalasin B-induced human neutrophils
# Assay type: cell-based
# Assay Conditions: Homo sapiens, Neutrophil, read-out: Elastase release IC50
pIC50: −log10 of the molar value.

- Molecule: "COc1cc(O)c2c(=O)c(OC)c(-c3ccc(O)c(OC)c3)oc2c1 [Compound 9, pachypodol]"
  pIC50: "< 5.00"
- Molecule: "COc1cc(O)c2c(=O)c(OC)c(-c3ccc(O)cc3)oc2c1 [Compound 7, kumatakenin]"
  pIC50: "< 5.00"

# next molecule below
Query: Value lookup for pIC50; key = O=c1c(-c2ccc(O)cc2)coc2cc(O)cc(O)c12 [Genistein, reference compound]
Reply: 4.79
